Where do these numbers come from? They come from patent US20230174641A1.

study_target: T1, human ACTH 1-39 (human)
T1 peptide: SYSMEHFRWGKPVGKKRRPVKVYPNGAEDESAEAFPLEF
assay_protocol: cell-based or functional assay
Field: MC2R IC50. Provide a value for each of the binders that follow.
Numbers only, in nM.

Ab1 (antibody, human IgG1, kappa, N297A, V domains shown, rabbit/human chimeric antibody, made in HEK-293) VH: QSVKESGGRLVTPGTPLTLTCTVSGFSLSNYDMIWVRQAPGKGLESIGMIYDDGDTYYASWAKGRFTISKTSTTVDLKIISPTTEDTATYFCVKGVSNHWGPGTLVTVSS VL: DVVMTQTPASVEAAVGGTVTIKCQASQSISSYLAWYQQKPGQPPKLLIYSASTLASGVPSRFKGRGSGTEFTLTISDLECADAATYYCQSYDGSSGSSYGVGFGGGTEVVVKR :: 0.14
Ab10 (antibody, human IgG1, kappa, N297A, V domains shown, rabbit/human chimeric antibody, made in HEK-293) VH: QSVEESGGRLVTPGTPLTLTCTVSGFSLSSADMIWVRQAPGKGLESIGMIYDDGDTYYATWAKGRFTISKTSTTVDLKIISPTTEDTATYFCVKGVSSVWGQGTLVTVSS VL: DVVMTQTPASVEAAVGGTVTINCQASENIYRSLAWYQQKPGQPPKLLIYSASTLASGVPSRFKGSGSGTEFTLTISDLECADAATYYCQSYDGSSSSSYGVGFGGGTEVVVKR :: 0.16

Please turn your attention to the following entry.
Give MC2R IC50 for the following binder: Ab4 (antibody, human IgG1, kappa, N297A, V domains shown, rabbit/human chimeric antibody, made in HEK-293) VH: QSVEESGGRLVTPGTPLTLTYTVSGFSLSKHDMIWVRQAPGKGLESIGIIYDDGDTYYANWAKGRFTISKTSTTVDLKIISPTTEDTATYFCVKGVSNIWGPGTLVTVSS VL: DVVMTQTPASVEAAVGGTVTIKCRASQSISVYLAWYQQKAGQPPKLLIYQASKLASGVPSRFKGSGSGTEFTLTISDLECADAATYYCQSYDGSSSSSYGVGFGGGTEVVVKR
0.46
